For each entry below, report its koff value.
target: T1, K48-linked diubiquitin (human, UniProt P0CG48 1-76, isopeptide bond between Lys48 of one ubiquitin and the C-terminal Gly of the other); assay: SPR Biacore, antigen immobilized
T1 construct: Boston Biochem
State just the number; it will be interpreted in s⁻¹.

So what does the record say about koff for Fab apu2.07 (Fab, V domains shown) VH: EVQLVESGGGLVQPGGSLRLSCAASGFNISYSSMHWVRQAPGKGLEWVASIYSYYSYTSYADSVKGRFTISADTSKNTAYLQMNSLRAEDTAVYYCARSYSYHLGMDYWGQGTLVTVSS VL: DIQMTQSPSSLSASVGDRVTITCRASQSVSSAVAWYQQKPGKAPKLLIYSASSLYSGVPSRFSGSRSGTDFTLTISSLQPEDFATYYCQQSSYSSLITFGQGTKVEIK ?
0.00318

Try this binder next: Fab apu2.01 (Fab, V domains shown) VH: EVQLVESGGGLVQPGGSLRLSCAASGFNISYSSMHWVRQAPGKGLEWVASIYSYYSYTSYADSVKGRFTISADTSKNTAYLQMNSLRAEDTAVYYCARSYSYSEALDYWGQGTLVTVSS VL: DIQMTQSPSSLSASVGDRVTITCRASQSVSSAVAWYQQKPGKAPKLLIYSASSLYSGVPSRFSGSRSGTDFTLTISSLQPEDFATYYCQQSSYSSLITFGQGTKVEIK
0.0149

Try this binder next: Fab apu2.08 (Fab, V domains shown) VH: EVQLVESGGGLVQPGGSLRLSCAASGFNISYSSMHWVRQAPGKGLEWVASIYSYYSYTSYADSVKGRFTISADTSKNTAYLQMNSLRAEDTAVYYCARSYSYSVGMDYWGQGTLVTVSS VL: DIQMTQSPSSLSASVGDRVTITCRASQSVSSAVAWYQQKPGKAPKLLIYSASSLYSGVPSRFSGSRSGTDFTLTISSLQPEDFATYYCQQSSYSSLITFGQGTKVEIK
0.00721

Try this binder next: Fab apu2.09 (Fab, V domains shown) VH: EVQLVESGGGLVQPGGSLRLSCAASGFNISYSSMHWVRQAPGKGLEWVASIYSYYSYTSYADSVKGRFTISADTSKNTAYLQMNSLRAEDTAVYYCARSYSYHVAFDYWGQGTLVTVSS VL: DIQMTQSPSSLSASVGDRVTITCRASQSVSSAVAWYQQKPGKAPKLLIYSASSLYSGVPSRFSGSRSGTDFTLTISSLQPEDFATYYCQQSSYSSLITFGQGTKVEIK
0.00478

Reference source for all entries: patent US20070218069A1
